tested on: cardiac beta-1-receptors (Felis catus, UniProt Q9TST6)
Construct: in narcotized cats (weight 2-4 kg); from tissue; host or cells: heart of the living narcotized cat (in vivo)
Sequence (Q9TST6 whole entry): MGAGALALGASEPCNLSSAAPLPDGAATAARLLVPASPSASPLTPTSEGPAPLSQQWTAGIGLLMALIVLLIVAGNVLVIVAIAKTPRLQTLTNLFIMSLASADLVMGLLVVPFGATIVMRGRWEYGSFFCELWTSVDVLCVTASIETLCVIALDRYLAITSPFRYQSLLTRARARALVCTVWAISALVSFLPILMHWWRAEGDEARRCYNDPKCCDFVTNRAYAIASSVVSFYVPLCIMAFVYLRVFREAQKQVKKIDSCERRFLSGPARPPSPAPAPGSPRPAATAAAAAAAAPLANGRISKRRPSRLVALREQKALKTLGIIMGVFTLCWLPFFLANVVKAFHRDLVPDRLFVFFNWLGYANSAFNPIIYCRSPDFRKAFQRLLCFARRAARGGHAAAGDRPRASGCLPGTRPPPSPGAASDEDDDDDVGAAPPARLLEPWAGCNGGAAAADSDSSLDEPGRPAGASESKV
measurement protocol: Beta-sympatholytic action: inhibition of isoproterenol-induced tachycardia in narcotized cats
Type: in vivo
measurement conditions: Propranolol = 1.00; cats, intravenous
Text: The following test methods were used: Beta-sympatholytic agents inhibit such tachycardia. ^(1) Inhibition of isoproterenolinduced tachycardia in cats under hexobarbital narcosis. Intravenous administration. ^(2) Dose (mg/kg) which inhibits the isoproterenolinduced tachycardia
We begin with a simple list: items and their reported Beta-sympatholytic action, R.A. (relative activity).
parameter measured: Beta-sympatholytic action, R.A. (relative activity)

{"columns": ["compound", "value observed"],
 "data": [
  ["Cc1nnc(C=Cc2ccccc2OCC(O)CNC(C)C)s1 (stereo not shown) [Example 1]", 14.10],
  ["C#CC(C)NCC(O)COc1ccccc1C=Cc1nnc(C)s1 (stereo not shown) [Example 7]", 12.70],
  ["Cc1nnc(C=Cc2ccccc2OCC(O)CNC(C)(C)C)s1 (stereo not shown) [Example 3]", 25.22],
  ["Cc1nnc(C=Cc2ccccc2OCC(O)CNC2CC2)s1 (stereo not shown) [Example 2]", 11.75]
]}
